# assay text: Substrate specificities of KAZ mutants (ZZ-fused, crude enzyme), CTZ
# Assay type: biochemical
# cond: ZZ-fused crude enzyme; 1 μg substrate; integrated for 60 seconds
readout kind: Relative Luminescence Activity CTZ Int.

INSERT INTO assay_data (molecule, obs_value) VALUES
  ('KAZ-V44I: KAZ with single amino acid substitution V44I, SEQ ID NO: 4 (protein) FTLADFVGDWQQTAGYNQDQVLEQGGLSSLFQALGVSVTPIQKIVLSGENGLKADIHVIIPYEGLSGFQMGLIEMIFKVVYPVDDHHFKIILHYGTLVIDGVTPNMIDYFGRPYPGIAVFDGKQITVTGTLWNGNKIYDERLINPDGSLLFRVTINGVTGWRLCENILA', 5.9),
  ('KAZ-V44I-Y138I: KAZ mutant with two amino acid substitutions V44I and Y138I, SEQ ID NO: 12 (protein) FTLADFVGDWQQTAGYNQDQVLEQGGLSSLFQALGVSVTPIQKIVLSGENGLKADIHVIIPYEGLSGFQMGLIEMIFKVVYPVDDHHFKIILHYGTLVIDGVTPNMIDYFGRPYPGIAVFDGKQITVTGTLWNGNKIIDERLINPDGSLLFRVTINGVTGWRLCENILA', 9.9),
  ('KAZ-V44I-A54I: KAZ mutant with two amino acid substitutions V44I and A54I, SEQ ID NO: 10 (protein) FTLADFVGDWQQTAGYNQDQVLEQGGLSSLFQALGVSVTPIQKIVLSGENGLKIDIHVIIPYEGLSGFQMGLIEMIFKVVYPVDDHHFKIILHYGTLVIDGVTPNMIDYFGRPYPGIAVFDGKQITVTGTLWNGNKIYDERLINPDGSLLFRVTINGVTGWRLCENILA', 12.7),
  ('KAZ-A54I-Y138I: KAZ mutant with two amino acid substitutions A54I and Y138I, SEQ ID NO: 14 (protein) FTLADFVGDWQQTAGYNQDQVLEQGGLSSLFQALGVSVTPIQKVVLSGENGLKIDIHVIIPYEGLSGFQMGLIEMIFKVVYPVDDHHFKIILHYGTLVIDGVTPNMIDYFGRPYPGIAVFDGKQITVTGTLWNGNKIIDERLINPDGSLLFRVTINGVTGWRLCENILA', 19.1);
